These entries and their values trace back to the supplement of paper PMC7877785.

Assay: self-splicing fitness, log relative to wild type (ln ratio); higher = more splicing; Tetrahymena group I intron in knt gene, E. coli kanamycin selection, DiMSum; sequences stand for … in CUCUCU…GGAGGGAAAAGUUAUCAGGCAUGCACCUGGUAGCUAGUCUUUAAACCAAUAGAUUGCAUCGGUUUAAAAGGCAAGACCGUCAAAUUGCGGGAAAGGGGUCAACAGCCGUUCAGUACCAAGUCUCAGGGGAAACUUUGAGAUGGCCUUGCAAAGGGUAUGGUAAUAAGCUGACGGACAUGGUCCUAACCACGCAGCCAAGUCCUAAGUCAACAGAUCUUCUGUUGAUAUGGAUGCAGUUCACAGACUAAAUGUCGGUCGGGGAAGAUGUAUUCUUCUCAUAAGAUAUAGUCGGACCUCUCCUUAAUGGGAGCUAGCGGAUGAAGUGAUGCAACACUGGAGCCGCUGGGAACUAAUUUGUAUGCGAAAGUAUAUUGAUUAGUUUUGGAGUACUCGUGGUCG;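 further: selection with 25 µg/mL kanamycin versus none on LB agar overnight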
Settings: 37 °C
Label Met when self-splicing fitness (ln) is at or above -0.9; otherwise label Not met.

Consider the worked cases shown below.
{"columns": ["residue.sequence", "class.assignment"],
 "data": [
  ["GGACAGCAAUAUUACGGCAU", "Met"],
  ["UUAAAGCAAUAUUACGCCAA", "Met"],
  ["AUGAAGCAAUAUUACGUAAC", "Met"],
  ["UCAAAGCAAUAUUACGAAUA", "Not met"],
  ["CUGAAGCAAUAUUACGGUCU", "Not met"],
  ["UUAUAGCAAUAUUACGAUUU", "Met"],
  ["UGGCAGCAAUAUUACGGCCG", "Not met"],
  ["UGACAGCAAUAUUACGGUUU", "Met"]
]}

Task: Could you tell me if the measured self-splicing fitness (ln) of "CAAAAGCAAUAUUACGUUAC" reaches -0.9 or more?
Output: Not met

Task: Answer whether self-splicing fitness (ln) of "UUCAAGCAAUAUUACGUUGU" is greater than or equal to -0.9.
Output: Not met

Task: Entry "CAGAAGCAAUAUUACGGCUA" : is its self-splicing fitness (ln) no less than -0.9?
Output: Met

====

What self-splicing fitness (ln) was measured for each of the following?
Experiment: self-splicing fitness, log relative to wild type (ln ratio); higher = more splicing; Tetrahymena group I intron in knt gene, E. coli kanamycin selection, DiMSum; sequences stand for … in CUCUCU…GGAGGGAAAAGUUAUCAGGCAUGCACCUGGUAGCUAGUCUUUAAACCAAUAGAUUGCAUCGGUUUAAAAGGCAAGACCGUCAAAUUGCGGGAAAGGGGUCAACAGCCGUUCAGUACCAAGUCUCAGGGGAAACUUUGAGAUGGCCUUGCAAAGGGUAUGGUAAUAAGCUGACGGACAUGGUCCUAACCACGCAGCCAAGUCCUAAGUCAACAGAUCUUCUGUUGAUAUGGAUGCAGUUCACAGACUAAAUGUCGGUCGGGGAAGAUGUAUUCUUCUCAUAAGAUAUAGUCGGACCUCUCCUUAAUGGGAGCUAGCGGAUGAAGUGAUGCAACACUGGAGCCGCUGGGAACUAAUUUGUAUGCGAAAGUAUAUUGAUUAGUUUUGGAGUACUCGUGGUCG
Details: 30 °C

Worked set:
{"columns": ["residue.sequence", "value.observed"],
 "data": [
  ["CCUAAGCAAUAUUACGCUCU", -2.4],
  ["AACUAGCAAUAUUACGUAAU", -1.82],
  ["UGACAGCAAUAUUACGAGAU", -3.55],
  ["GAACAGCAAUAUUACGCGCA", -0.367],
  ["UGCGAGCAAUAUUACGGUGG", -3.04]
]}

Record self-splicing fitness (ln) per entry; entries follow.
1. CGUCAGCAAUAUUACGUGUU
2. CUCCAGCAAUAUUACGUGCC
3. UGCGAGCAAUAUUACGAGUC
4. CUUGAGCAAUAUUACGCGGU
5. UUGAAGCAAUAUUACGUUUC

Output:
1. -3.17
2. -3.68
3. -3.05
4. -2.53
5. -3.35

Consider the following items and state reported self-splicing fitness (ln) for each.
1. GGCCAGCAAUAUUACGUUUC
2. CACAAGCAAUAUUACGCAGU
3. AAACAGCAAUAUUACGUAAU
4. CUGAAGCAAUAUUACGCGUA
5. GCCAAGCAAUAUUACGGGCG
6. CUAGAGCAAUAUUACGAUAG

Output:
[-1.4, -3.4, -1.79, -4.36, -1.36, -0.96]

Provide reported self-splicing fitness (ln) for each item, in the same order as listed.
1. CGGCAGCAAUAUUACGCGUU
2. CAGCAGCAAUAUUACGCGAU
3. AAAGAGCAAUAUUACGCGGG
4. AUAUAGCAAUAUUACGCCUG
5. AGAUAGCAAUAUUACGCAAC
6. CAAAAGCAAUAUUACGCCUC
7. GUGUAGCAAUAUUACGGAUU

Output:
[-4.11, -3.91, -4.16, -2.24, -2.05, -3.57, -2.13]

For each of the sequences below, state self-splicing fitness (ln).
1. AUCAAGCAAUAUUACGAAAA
2. CCAGAGCAAUAUUACGCAGU
3. GUCGAGCAAUAUUACGUAGG
4. UCUUAGCAAUAUUACGGAUU
5. CUAGAGCAAUAUUACGAUUC

Output:
[-2.84, -3.22, -3.66, -2.71, -2.96]

Can you give me self-splicing fitness (ln) for all of these, one by one?
1. CCGAAGCAAUAUUACGUCAC
2. CGUAAGCAAUAUUACGUUUG

Output:
1. -3.29
2. -1.2

Look up self-splicing fitness (ln) for the entries below, preserving their order.
1. CCUCAGCAAUAUUACGCUCU
2. UUGAAGCAAUAUUACGUCUA

Output:
1: -4.29; 2: 0.0429

For every item in the list below, what is its measured self-splicing fitness (ln)?
1. GCUGAGCAAUAUUACGGUAG
2. UGCCAGCAAUAUUACGGCGG
3. GUGUAGCAAUAUUACGCGAA

Output:
1. -3.27
2. -3.73
3. -2.15

Can you give me self-splicing fitness (ln) for all of these, one by one?
1. AAGCAGCAAUAUUACGGACA
2. ACAUAGCAAUAUUACGCAAU
3. GAUGAGCAAUAUUACGGGAA
4. CGUUAGCAAUAUUACGUACG
5. UCUAAGCAAUAUUACGCGUG
6. GGCCAGCAAUAUUACGGGCG
7. UCCCAGCAAUAUUACGAUAG
8. AUGGAGCAAUAUUACGCGUA

Output:
-1.69
-3.57
-3.01
-2.89
-1.43
-2.13
-3.91
-2.62
